Data origin: the supplement of paper PMC10567573

The following variants are shown together with reported protein stability index values.
B1: SLC35F2 (parent)
chain: FVAFALCMFCLYSFMPLVIKVTSA

# Variants of: B1
# protocol summary: protein stability index of a GFP-peptide fusion (GPS, HEK-293T) (PSI 1-6); higher = more stable;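 note: lentivirally expressed fusions sorted by FACS into six bins by GFP to DsRed ratio, PSI derived from sequencing read proportions per bin multiplied by bin number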
# applied conditions: c terminus: a fixed tail appended

Task: Fill in the blank: the reported protein stability index of `L11H` is ____.
Result: 2.99

Task: Proceed to `V18C`
Result: 3.04

Task: Next up: `M15I`
Result: 3.14

---
Task: Query: protein stability index; subject: `I19E`
Result: 2.87
